target entity: T1, human IGFBP-1 (human, UniProt P08833 26-259)
T1 construct: mature; also called IGFBP-I
T1 sequence (looked up): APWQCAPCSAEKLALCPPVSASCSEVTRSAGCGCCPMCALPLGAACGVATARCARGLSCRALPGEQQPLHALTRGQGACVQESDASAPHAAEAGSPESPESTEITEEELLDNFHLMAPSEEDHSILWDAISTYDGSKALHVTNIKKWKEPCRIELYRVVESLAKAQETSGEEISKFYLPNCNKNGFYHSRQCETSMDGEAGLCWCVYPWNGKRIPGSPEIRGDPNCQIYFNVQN
protocol notes: competitive phage ELISA
measured metric: IC50

Using the record for Ala(1-3)-IGF-I (phage-displayed triple alanine mutant) (ligand) AAATLCGAELVDALQFVCGDRGFYFNKPTGYGSSSRRAPQTGIVDECCFRSCDLRRLEMYCAPLKPAKSV , report its IC50.
90.4 nM
